# target_or_test_system: hM2 muscarinic receptor subtype (Homo sapiens)
# Construct: expressed in transfected cells
# experimental_protocol: Radioligand binding assay ([3H]-NMS displacement), hM2
# experimental_conditions: ratio of hM2 Ki values
measured_endpoint: Δ hM2: change in binding affinity relative to compound of the invention

NC(=O)C(c1ccccc1)(c1ccccc1)[C@@H]1CCN(CCCCCCCCNCCO)C1 [Example 8]; ×6.3
CN(C)CCCCCCCCN1CC[C@@H](C(C(N)=O)(c2ccccc2)c2ccccc2)C1 [Comp. Ex. A, reference compound]; ×39
CNCCCCCCCCN1CC[C@@H](C(C(N)=O)(c2ccccc2)c2ccccc2)C1 [Example 1]; ×4.7
CNCCCCCCCCCN1CC[C@@H](C(C(N)=O)(c2ccccc2)c2ccccc2)C1 [Example 14]; ×70

====

The compounds below have reported pKi for hM2 muscarinic receptor subtype (Homo sapiens, UniProt P08172).
pKi (log units): -log10 of the concentration in mol/L.

stdin: State pKi on hM2 muscarinic receptor subtype (Homo sapiens, UniProt P08172). Entry: CNCCCCCCCCN1CC[C@@H](C(C(N)=O)(c2ccccc2)c2ccccc2)C1
Sequence (P08172 whole entry): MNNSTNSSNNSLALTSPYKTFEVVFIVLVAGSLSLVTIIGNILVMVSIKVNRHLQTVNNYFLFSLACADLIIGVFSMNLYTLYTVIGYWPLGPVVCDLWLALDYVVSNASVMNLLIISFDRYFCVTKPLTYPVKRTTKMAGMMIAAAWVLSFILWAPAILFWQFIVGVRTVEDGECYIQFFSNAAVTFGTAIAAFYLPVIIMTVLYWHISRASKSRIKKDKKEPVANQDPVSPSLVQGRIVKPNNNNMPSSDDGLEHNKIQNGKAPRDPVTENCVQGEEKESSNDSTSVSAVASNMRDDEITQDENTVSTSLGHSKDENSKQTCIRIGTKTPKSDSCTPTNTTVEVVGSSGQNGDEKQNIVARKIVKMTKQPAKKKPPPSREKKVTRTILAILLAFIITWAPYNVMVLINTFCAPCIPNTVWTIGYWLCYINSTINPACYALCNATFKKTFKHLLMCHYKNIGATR
stdout: 8.42

stdin: State the measured pKi (hM2 muscarinic receptor subtype (Homo sapiens, UniProt P08172)) of NCCCCCCCCN1CC[C@@H](C(C(N)=O)(c2ccccc2)c2ccccc2)C1 [Comp. Ex. D, reference compound]
stdout: 6.82

stdin: Report pKi under test system hM2 muscarinic receptor subtype (Homo sapiens, UniProt P08172) for CC(CCCCCCCN1CC[C@@H](C(C(N)=O)(c2ccccc2)c2ccccc2)C1)N(C)CCO (stereo partly drawn) [Comp. Ex. C, reference compound] .
stdout: 7.08

====

# target_or_test_system: hM3 muscarinic receptor subtype (Homo sapiens, UniProt P20309)
# Construct: expressed in transfected cells
# Sequence (P20309 whole entry): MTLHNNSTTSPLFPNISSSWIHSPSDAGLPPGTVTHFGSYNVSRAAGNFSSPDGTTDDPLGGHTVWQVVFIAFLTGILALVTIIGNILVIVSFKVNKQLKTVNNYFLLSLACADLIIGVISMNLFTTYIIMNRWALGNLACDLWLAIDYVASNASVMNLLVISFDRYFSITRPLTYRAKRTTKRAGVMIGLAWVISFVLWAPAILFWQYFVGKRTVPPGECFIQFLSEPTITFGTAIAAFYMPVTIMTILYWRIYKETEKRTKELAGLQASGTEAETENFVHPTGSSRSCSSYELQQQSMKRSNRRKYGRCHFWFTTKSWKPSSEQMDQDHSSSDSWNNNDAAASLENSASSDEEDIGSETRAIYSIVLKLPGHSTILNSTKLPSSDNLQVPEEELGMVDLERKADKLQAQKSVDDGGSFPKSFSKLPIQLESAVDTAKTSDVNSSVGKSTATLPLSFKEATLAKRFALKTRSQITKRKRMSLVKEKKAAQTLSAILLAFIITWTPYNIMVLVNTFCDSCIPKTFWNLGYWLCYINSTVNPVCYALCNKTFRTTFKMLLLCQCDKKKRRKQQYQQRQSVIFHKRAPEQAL
# experimental_protocol: Radioligand binding assay ([3H]-NMS displacement), hM3
# experimental_conditions: CHO cell membranes, [3H]-NMS 1 nM; read-out: hM3 binding affinity (Ki)
Listed here: items and their measured Ki.
Just the number in nM, nothing appended.

# example entries with known answers
CN(C)CCCCCCCCCN1CC[C@@H](C(C(N)=O)(c2ccccc2)c2ccccc2)C1 [Comp. Ex. B, reference compound]; 25
NC(=O)C(c1ccccc1)(c1ccccc1)[C@@H]1CCN(CCCCCCCCNCCO)C1; 5.1
NCCCCCCCCN1CC[C@@H](C(C(N)=O)(c2ccccc2)c2ccccc2)C1 [Comp. Ex. D, reference compound]; 50
CN(C)CCCCCCCCN1CC[C@@H](C(C(N)=O)(c2ccccc2)c2ccccc2)C1 [Comp. Ex. A, reference compound]; 2.5
CNCCCCCCCCN1CC[C@@H](C(C(N)=O)(c2ccccc2)c2ccccc2)C1; 0.96
CC(CCCCCCCN1CC[C@@H](C(C(N)=O)(c2ccccc2)c2ccccc2)C1)N(C)CCO (stereo partly shown) [Comp. Ex. C, reference compound]; 73

stdin: Supply measured Ki of CNCCCCCCCCCN1CC[C@@H](C(C(N)=O)(c2ccccc2)c2ccccc2)C1 in your reply.
stdout: 0.66

====

Ki, hM2 muscarinic receptor subtype (Homo sapiens, UniProt P08172): measured values
Kindly provide the numeric value in nM only, without the unit symbol.

stdin: // output Ki; input CN(C)CCCCCCCCCN1CC[C@@H](C(C(N)=O)(c2ccccc2)c2ccccc2)C1 [Comp. Ex. B, reference compound] ; system hM2 muscarinic receptor subtype (Homo sapiens, UniProt P08172)
stdout: 120

stdin: State the measured Ki (hM2 muscarinic receptor subtype (Homo sapiens, UniProt P08172)) of CN(C)CCCCCCCCN1CC[C@@H](C(C(N)=O)(c2ccccc2)c2ccccc2)C1 [Comp. Ex. A, reference compound]
stdout: 18

stdin: For hM2 muscarinic receptor subtype (Homo sapiens, UniProt P08172), give Ki of the listed molecule: NC(=O)C(c1ccccc1)(c1ccccc1)[C@@H]1CCN(CCCCCCCCNCCO)C1
stdout: 13
